Source: patent US9957271B2

Target: SIRT1 (Homo sapiens, UniProt Q96EB6)
Sequence (Q96EB6 whole entry): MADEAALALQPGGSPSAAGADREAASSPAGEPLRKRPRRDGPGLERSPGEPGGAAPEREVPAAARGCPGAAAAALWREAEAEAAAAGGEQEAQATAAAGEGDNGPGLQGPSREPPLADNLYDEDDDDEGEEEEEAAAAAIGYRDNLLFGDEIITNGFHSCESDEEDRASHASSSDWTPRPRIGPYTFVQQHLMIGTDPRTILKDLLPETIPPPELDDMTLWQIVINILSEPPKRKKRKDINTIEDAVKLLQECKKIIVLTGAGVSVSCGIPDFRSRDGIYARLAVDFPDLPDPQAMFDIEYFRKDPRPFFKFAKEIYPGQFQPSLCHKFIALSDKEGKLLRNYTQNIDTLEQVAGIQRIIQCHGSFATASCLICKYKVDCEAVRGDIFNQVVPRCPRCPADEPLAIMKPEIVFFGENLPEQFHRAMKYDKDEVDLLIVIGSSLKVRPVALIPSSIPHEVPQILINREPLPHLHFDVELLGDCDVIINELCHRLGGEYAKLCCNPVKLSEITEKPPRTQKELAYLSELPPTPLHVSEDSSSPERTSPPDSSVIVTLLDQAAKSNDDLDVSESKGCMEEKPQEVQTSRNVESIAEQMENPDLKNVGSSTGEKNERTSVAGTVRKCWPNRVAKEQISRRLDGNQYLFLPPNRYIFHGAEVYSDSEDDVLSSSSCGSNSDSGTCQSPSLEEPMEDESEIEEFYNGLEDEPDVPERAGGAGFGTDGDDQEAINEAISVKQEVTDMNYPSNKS
Assay: TAMRA based mass spectrometry assay of SIRT1 activity
Assay type: biochemical
Details: concentration of test compound giving 150% activation of SIRT1; TAMRA peptide substrate
ASSAY_METRIC: TAMRA EC1.5 (μM)

Consider the worked cases shown below.
| MOLECULE | TEST_TARGET | RESULT |
| --- | --- | --- |
| CS(=O)(=O)c1ccccc1-c1ccc2ncc(C(=O)Nc3ccccn3)n2n1 [Compound 188] | SIRT1 (Homo sapiens, UniProt Q96EB6) | C (EC1.5>25 μM) |
| O=C(Nc1ccccn1)c1cnc2ccc(-c3ccccc3C(F)(F)F)nn12 [Compound 16] | SIRT1 (Homo sapiens, UniProt Q96EB6) | A (EC1.5<1 μM) |
| CS(=O)(=O)c1cccc(-c2ccc3ncc(C(=O)Nc4nccs4)n3n2)c1 [Compound 11] | SIRT1 (Homo sapiens, UniProt Q96EB6) | C (EC1.5>25 μM) |
| O=C(Nc1nc(CN2CCOCC2)cs1)c1cnc2ccc(-c3cc(F)cc(F)c3)nn12 [Compound 46] | SIRT1 (Homo sapiens, UniProt Q96EB6) | B (EC1.5 1-25 μM) |
| O=C(Nc1cccnc1)c1cnc2ccc(-c3ccc(F)c(F)c3F)nn12 [Compound 131] | SIRT1 (Homo sapiens, UniProt Q96EB6) | C (EC1.5>25 μM) |
| Cc1ncccc1-c1ccc2ncc(C(=O)Nc3ccnc(N4CCC4)c3)n2n1 [Compound 63] | SIRT1 (Homo sapiens, UniProt Q96EB6) | C (EC1.5>25 μM) |

TAMRA EC1.5 (μM) measured on O=C(Nc1cnccn1)c1cnc2ccc(-c3ccccc3Cl)nn12 [Compound 119] = B (EC1.5 1-25 μM)

TAMRA EC1.5 (μM) measured on COc1cccc(NC(=O)c2cnc3ccc(-c4ccccc4C(F)(F)F)nn23)n1 [Compound 103] = A (EC1.5<1 μM)

TAMRA EC1.5 (μM) measured on O=C(Nc1ccncn1)c1cnc2ccc(-c3ccccc3C(F)(F)F)nn12 [Compound 80] = B (EC1.5 1-25 μM)

###

Molecular target: SIRT1 (Homo sapiens, UniProt Q96EB6)
Assay: Trp mass spectrometry assay of SIRT1 activity
Assay type: biochemical
Conditions: Trp assay; percent maximum fold activation; read-out: Trp % Fold Act
ASSAY_METRIC: Emax

Consider the worked cases shown below.
| MOLECULE | Emax |
| --- | --- |
| Cc1nc2ccc(-c3cccc(F)c3)nn2c1C(=O)Nc1cccnn1 [Compound 767] | ≥ 350% |
| Cc1nc2ccc(N3CCC(C(F)(F)F)C3)nn2c1C(=O)Nc1cccnn1 (centres unmarked) [Compound 998] | ≥ 350% |
| O=C(Nc1ccc(CN2CCCC2)cn1)c1cnc2ccc(-c3ccccc3C(F)(F)F)nn12 [Compound 248] | < 350% |
| Cc1cc(C)nc(C(=O)Nc2cnn3ccc(-c4ccccc4OC(F)(F)F)nc23)n1 [Compound 736] | < 350% |
| COCCOc1nccc(NC(=O)c2cnc3c(C)cc(-c4ccccc4C(F)(F)F)nn23)n1 [Compound 627] | ≥ 350% |
| Cc1nc2c(C)cc(-c3ccccc3C(F)(F)F)nn2c1C(=O)Nc1ccnc(C(C)(C)C)n1 [Compound 731] | < 350% |
| COc1cccc(NC(=O)c2cnc3ccc(-c4ccccc4F)nn23)n1 [Compound 244] | < 350% |
| O=C(Nc1ccncn1)c1cnc2ccc(N3CCCC3C(F)(F)F)nn12 (centres unmarked) [Compound 970] | ≥ 350% |
| COc1ccnc(NC(=O)c2c(C)nc3ccc(-c4ccccc4C(F)(F)F)nn23)c1 [Compound 671] | ≥ 350% |
| Cc1ccc(NC(=O)c2c(C)nc3ccc(-c4cccc(F)c4)nn23)nn1 [Compound 716] | < 350% |

Emax measured on Cc1nc(C(=O)Nc2c(C)nc3ccc(-c4ccccc4Cl)nn23)cs1 [Compound 351] = < 350%

Emax measured on O=C(Nc1ccc(F)cn1)c1cnc2ccc(-c3cccc(OC[C@H](O)CO)c3)nn12 [Compound 884] = < 350%

Emax measured on Cc1nc2ccc(N3CC[C@H](N(C)C)C3)nn2c1C(=O)Nc1cccnc1 [Compound 877] = < 350%

Emax measured on O=C(Nc1cncc(F)c1)c1cnc2ccc(N3CCCC3C(F)(F)F)nn12 (centres unmarked) [Compound 967] = ≥ 350%

Emax measured on O=C(Nc1cccnc1)c1cnn2ccc(N3CCCCC3C(F)(F)F)nc12 (centres unmarked) [Compound 945] = ≥ 350%

Emax measured on Cc1nc2ccc(-c3ccccc3F)nn2c1C(=O)Nc1cccnn1 [Compound 706] = < 350%

Emax measured on Cc1nc2ccc(N3CC[C@H](F)C3)nn2c1C(=O)Nc1ccc(F)cn1 [Compound 844] = < 350%
